# System Under Test: alanine racemase enzyme from E. Coli (Escherichia coli)
# Sequence (P0A6B4 whole entry): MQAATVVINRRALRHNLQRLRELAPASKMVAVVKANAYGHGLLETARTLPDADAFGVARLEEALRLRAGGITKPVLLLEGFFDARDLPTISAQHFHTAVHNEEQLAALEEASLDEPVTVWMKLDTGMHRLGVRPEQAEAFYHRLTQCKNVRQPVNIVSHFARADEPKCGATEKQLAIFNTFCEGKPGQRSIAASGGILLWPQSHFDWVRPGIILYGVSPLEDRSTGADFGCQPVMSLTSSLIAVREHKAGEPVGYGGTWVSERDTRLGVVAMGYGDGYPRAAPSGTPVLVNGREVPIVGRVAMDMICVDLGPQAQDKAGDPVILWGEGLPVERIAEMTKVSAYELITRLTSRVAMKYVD
# Method: biochemical
# Conditions Used: Ki
Structures can show the parent of a compound that is named as a salt.
Reported log10(Ki) values are given for each entry in this list.
Hey, these are logged values: log10 of Ki, mM being the unit before logging.

Reference set (4 entries):
{"columns": ["Molecule", "log10(Ki)"],
 "data": [
  ["C[C@H](N)C(=O)NO.Cl [HCl•H2NCH(CH3)C(O)NHOH*, L-Alanine Hydroxamic Acid Hydrochloride]", 0.44],
  ["Cl.NCC(=O)NO [HCl•H2NCH2C(O)NHOH, Glycine Hydroxamic Acid Hydrochloride]", -0.57],
  ["CNCC(=O)NO [CH3NHCH2C(O)NHOH, Sarcosine Hydroxamic Acid]", 0.76],
  ["C[C@@H](N)C(=O)NO [Hcl•H2NCH(CH3)C(O)NHOH, D-Alanine Hydroxamic Acid Hydrochloride]", 0.72]
]}

Asked: Fill in: log10(Ki) of Cl.NCCC(=O)NO [HCl•H2NCH2CH2C(O)NHOH, β-Alanine Hydroxamic Acid Hydrochloride] is ___
Given back: 0.08
